The reported numbers originate from patent US7074789B2.

- Target Under Test: Kdr (Homo sapiens)
- Construct: Kinases are expressed as either kinase domains or full length constructs; made in house
- Sequence (P35968 20-1356, species assumed): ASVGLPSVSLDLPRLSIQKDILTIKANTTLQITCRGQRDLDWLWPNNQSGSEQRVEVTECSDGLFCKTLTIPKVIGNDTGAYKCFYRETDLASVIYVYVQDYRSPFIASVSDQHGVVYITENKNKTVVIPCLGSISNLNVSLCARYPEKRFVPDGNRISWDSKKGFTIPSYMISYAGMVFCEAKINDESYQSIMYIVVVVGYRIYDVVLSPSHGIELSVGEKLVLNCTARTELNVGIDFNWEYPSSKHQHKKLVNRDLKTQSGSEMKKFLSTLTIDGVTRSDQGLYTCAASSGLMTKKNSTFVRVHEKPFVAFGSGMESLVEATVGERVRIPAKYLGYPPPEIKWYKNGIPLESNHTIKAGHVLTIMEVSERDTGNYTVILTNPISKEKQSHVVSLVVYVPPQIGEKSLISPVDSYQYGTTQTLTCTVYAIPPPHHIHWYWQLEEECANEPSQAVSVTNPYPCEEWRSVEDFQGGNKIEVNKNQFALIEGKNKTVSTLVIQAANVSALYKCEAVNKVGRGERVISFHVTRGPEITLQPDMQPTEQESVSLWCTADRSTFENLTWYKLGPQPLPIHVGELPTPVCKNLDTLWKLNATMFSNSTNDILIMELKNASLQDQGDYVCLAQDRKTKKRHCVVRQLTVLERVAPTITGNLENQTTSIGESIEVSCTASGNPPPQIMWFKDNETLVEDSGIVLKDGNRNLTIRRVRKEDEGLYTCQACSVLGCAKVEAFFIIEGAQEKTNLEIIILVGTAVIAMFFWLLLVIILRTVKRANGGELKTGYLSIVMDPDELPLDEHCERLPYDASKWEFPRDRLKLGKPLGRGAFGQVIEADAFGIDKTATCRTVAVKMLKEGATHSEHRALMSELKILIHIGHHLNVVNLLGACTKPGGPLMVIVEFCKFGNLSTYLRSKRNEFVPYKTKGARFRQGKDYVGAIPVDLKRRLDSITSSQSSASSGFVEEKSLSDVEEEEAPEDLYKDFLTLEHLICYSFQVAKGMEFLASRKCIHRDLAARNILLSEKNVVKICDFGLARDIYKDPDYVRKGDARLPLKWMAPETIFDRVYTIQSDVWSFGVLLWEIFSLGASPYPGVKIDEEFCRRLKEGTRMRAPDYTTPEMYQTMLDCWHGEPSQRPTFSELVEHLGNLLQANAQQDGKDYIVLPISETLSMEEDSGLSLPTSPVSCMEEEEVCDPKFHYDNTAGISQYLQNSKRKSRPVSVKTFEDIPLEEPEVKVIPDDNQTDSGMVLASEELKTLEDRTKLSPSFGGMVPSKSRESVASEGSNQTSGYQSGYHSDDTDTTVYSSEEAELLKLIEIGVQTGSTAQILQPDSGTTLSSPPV
- Test Details: Kinase inhibition assay (33P transfer), Kdr
- Assay type: biochemical
- Condition Details: Table 3; read-out: KDR-1
Recorded Endpoint: IC50

Reference set (3 entries):
Enquiry: // lookup IC50 for COc1cc(Nc2ncnc(Nc3cc(F)ccc3F)n2)cc(OC)c1OC [Compound 316]
Return: < 1.03 µM

Enquiry: // lookup IC50 for COc1cc(Nc2ncnc(Nc3cccc(Oc4ccccc4)c3)n2)cc(OC)c1OC [Compound 105]
Return: 0.898 to 5.39 µM

Enquiry: // lookup IC50 for COc1cc(Nc2ncnc(Nc3ccc4c(c3)OCO4)n2)cc(OC)c1OC [Compound 252]
Return: < 1.01 µM

---
Enquiry: // lookup IC50 for COc1cc(Nc2ncnc(Nc3nc(-c4ccccc4)cs3)n2)cc(OC)c1OC [Compound 444]
Return: > 10.3 µM

Enquiry: // lookup IC50 for COc1cc(Nc2ncnc(-c3ccnc(Cl)c3)n2)cc(OC)c1OC [Compound 331]
Return: > 12 µM

Enquiry: // lookup IC50 for COc1cc(Nc2ncnc(-n3ccc4cc(O)ccc43)n2)cc(OC)c1OC [Compound 202]
Return: < 1.02 µM

Enquiry: // lookup IC50 for C#Cc1cccc(Nc2ncnc(-n3c(=O)[nH]c4ccccc43)n2)c1 [Compound 460]
Return: 1.22 to 7.31 µM

Enquiry: // lookup IC50 for COc1cc(Nc2ncnc(-c3c(O)[nH]c4ccccc34)n2)cc(OC)c1OC [Compound 380]
Return: < 1.02 µM

Enquiry: // lookup IC50 for COc1cc(Nc2ncnc(N3CCCC3)n2)cc(OC)c1OC [Compound 181]
Return: > 13.6 µM

Enquiry: // lookup IC50 for O=c1[nH]c2ccccc2n1-c1ncnc(Nc2cccc(OC(F)(F)F)c2)n1 [Compound 461]
Return: > 11.6 µM

Enquiry: // lookup IC50 for Nc1ncnc(Nc2cc(Cl)ccc2O)n1 [Compound 1022]
Return: > 18.9 µM

Enquiry: // lookup IC50 for OCCCNc1ncnc(-c2ccccc2)n1 [Compound 971]
Return: > 19.5 µM

Enquiry: // lookup IC50 for COc1cc(Nc2ncnc(-c3ccsc3)n2)cc(OC)c1OC [Compound 226]
Return: 6.97 to 10.2 µM

Enquiry: // lookup IC50 for Nc1ncnc(Nc2cccc(Nc3ncnc(N)n3)c2)n1 [Compound 1027]
Return: > 15.2 µM

###

Measured pIC50 values are reported for all entries that follow.
- Target Under Test: Flt-1 (Homo sapiens)
- Sequence (P17948 27-1338, species assumed): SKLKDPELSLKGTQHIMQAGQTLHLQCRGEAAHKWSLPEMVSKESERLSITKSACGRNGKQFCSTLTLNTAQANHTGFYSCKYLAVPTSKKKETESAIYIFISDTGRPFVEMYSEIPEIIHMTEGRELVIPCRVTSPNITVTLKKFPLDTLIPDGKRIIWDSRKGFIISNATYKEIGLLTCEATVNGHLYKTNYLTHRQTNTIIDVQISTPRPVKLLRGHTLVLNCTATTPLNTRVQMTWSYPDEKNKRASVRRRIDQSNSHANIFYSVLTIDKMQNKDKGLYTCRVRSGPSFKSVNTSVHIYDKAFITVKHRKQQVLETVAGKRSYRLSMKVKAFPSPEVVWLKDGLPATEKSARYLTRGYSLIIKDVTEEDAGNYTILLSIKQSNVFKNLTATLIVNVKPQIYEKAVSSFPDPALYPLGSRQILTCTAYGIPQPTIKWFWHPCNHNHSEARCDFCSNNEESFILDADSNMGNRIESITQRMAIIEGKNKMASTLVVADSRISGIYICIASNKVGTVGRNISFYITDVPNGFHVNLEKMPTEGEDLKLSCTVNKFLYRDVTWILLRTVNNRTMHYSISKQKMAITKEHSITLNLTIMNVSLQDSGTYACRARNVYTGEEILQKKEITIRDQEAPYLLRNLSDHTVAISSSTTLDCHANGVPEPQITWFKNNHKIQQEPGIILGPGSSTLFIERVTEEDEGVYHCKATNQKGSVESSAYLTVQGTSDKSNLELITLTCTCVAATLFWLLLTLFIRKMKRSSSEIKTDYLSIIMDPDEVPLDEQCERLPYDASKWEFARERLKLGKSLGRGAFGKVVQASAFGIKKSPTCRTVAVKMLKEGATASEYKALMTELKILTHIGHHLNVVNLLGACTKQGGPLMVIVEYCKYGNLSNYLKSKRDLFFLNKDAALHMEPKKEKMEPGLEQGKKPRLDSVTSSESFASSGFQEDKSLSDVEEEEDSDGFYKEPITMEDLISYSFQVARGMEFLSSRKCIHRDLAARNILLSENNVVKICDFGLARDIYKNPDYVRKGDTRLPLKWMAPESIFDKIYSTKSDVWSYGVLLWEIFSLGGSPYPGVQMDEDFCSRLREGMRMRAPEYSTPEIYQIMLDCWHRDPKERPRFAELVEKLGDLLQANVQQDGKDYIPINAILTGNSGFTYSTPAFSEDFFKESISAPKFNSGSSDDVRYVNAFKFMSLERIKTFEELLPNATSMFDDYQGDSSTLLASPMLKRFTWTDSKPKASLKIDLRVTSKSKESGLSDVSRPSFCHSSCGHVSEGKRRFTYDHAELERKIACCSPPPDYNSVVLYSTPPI
pIC50: −log10 of the molar value.

Enquiry: Lab request: please report pIC50 under test system Flt-1 (Homo sapiens) for COc1cc(Nc2ncnc(-n3cccc3)n2)cc(OC)c1OC [Compound 182]
Return: < 4.86

Enquiry: Lab request: please report pIC50 under test system Flt-1 (Homo sapiens) for COc1cccc(Nc2ncnc(Nc3cc(OC)c(OC)c(OC)c3)n2)c1 [Compound 87]
Return: 4.93 to 5.04

Enquiry: Lab request: please report pIC50 under test system Flt-1 (Homo sapiens) for COc1cc(Nc2ncnc(N[C@H](CO)c3ccccc3)n2)cc(OC)c1OC [Compound 425]
Return: < 4.95

Enquiry: Lab request: please report pIC50 under test system Flt-1 (Homo sapiens) for COc1cc(Nc2ncnc(Nc3ccc(Cl)cc3F)n2)cc(OC)c1OC [Compound 306]
Return: 5.23 to 6.01

Enquiry: Lab request: please report pIC50 under test system Flt-1 (Homo sapiens) for COc1cc(Nc2ncnc(-n3c(=O)[nH]c4ccccc43)n2)cc(OC)c1OCCN1CCOCC1 [Compound 1040]
Return: 5.31 to 6.09

---
Enquiry: Lab request: please report pIC50 under test system Flt-1 (Homo sapiens) for COc1cc(Nc2ncnc(Nc3ccc4[nH]ccc4c3)n2)cc(OC)c1OC [Compound 928]
Return: > 5.99

Enquiry: Lab request: please report pIC50 under test system Flt-1 (Homo sapiens) for CC(C)Nc1ncccc1-c1ncnc(Nc2ccc(C(N)=O)cc2)n1 [Compound 1084]
Return: < 4.89

Enquiry: Lab request: please report pIC50 under test system Flt-1 (Homo sapiens) for COc1cc(Nc2ncnc(Nc3cc(C)c(O)cc3C)n2)cc(OC)c1OC [Compound 94]
Return: 4.95 to 5.06

###

- Target Under Test: EGFR (Homo sapiens, UniProt P00533)
- Construct: Kinases are expressed as either kinase domains or full length constructs; made in house
- Sequence (P00533 25-1210, species assumed): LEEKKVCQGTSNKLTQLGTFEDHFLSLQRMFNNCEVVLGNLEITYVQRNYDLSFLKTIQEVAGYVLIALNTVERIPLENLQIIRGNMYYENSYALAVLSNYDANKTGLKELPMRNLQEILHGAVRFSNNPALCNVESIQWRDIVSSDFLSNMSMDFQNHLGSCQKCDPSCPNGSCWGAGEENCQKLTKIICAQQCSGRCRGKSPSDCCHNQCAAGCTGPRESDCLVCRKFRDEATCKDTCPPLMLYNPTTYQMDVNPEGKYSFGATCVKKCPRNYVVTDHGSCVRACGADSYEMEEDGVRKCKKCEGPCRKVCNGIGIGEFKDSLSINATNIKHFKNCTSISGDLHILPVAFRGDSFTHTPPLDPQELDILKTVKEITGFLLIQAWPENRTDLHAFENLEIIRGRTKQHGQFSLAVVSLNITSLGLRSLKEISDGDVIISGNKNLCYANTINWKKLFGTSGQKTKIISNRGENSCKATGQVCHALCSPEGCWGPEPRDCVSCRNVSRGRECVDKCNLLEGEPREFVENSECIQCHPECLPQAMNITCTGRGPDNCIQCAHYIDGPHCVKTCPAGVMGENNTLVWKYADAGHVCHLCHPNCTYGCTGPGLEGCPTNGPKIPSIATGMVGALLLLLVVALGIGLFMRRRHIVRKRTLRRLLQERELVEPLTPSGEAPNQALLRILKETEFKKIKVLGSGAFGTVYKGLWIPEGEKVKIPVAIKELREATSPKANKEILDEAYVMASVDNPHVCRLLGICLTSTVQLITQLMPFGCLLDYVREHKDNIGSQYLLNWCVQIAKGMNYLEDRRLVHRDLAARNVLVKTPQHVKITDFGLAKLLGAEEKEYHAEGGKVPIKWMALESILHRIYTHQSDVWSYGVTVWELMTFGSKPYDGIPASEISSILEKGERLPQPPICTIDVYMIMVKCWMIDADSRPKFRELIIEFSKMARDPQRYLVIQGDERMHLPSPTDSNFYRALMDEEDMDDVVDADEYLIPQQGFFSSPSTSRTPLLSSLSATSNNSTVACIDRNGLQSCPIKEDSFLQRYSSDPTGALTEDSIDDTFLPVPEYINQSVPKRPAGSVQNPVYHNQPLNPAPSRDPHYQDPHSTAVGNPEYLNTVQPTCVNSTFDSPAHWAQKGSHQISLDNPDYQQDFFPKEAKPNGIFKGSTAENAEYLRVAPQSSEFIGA
- Test Details: Kinase inhibition assay (33P transfer), EGFR
- Type: biochemical
- Condition Details: Table 2, kinase inhibition class; read-out: EGFR-1
pIC50: −log10 of the molar value.
Recorded Endpoint: pIC50

Enquiry: Lab request: please report pIC50 under test system EGFR (Homo sapiens, UniProt P00533) for COc1cc(Nc2ncnc(N3CCCc4cc(C)ccc43)n2)cc(OC)c1OC [Compound 498]
Return: > 6.01

Enquiry: Lab request: please report pIC50 under test system EGFR (Homo sapiens, UniProt P00533) for COc1cc(Nc2ncnc(Nc3cc(C)ccc3C)n2)cc(OC)c1OC [Compound 932]
Return: 5.20 to 5.98

---
Enquiry: Lab request: please report pIC50 under test system EGFR (Homo sapiens, UniProt P00533) for COc1cc(Nc2ncnc(-n3c(N)nc4ccccc43)n2)cc(OC)c1 [Compound 477]
Return: < 4.91

###

Measured IC50 values are reported for all entries that follow.
- Target Under Test: Zap-70 (Homo sapiens, UniProt P43403)
- Construct: Kinases are expressed as either kinase domains or full length constructs; made in house
- Sequence (P43403 whole entry, species assumed, the tested form may be a part): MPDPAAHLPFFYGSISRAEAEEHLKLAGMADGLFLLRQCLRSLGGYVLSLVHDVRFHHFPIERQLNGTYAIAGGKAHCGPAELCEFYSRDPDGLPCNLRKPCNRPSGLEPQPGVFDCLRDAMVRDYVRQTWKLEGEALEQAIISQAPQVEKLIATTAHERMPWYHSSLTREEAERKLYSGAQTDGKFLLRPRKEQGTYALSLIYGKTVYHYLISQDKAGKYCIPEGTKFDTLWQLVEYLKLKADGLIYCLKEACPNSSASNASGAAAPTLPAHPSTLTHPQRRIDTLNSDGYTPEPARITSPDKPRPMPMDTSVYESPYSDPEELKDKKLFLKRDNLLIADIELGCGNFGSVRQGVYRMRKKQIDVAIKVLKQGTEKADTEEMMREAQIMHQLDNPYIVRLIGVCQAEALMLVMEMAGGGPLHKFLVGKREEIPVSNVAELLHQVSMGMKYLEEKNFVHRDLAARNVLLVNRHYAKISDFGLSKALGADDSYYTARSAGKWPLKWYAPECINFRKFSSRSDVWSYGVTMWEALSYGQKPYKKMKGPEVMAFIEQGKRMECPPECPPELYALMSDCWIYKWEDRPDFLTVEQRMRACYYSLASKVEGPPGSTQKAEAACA
- Test Details: Kinase inhibition assay (33P transfer), Zap-70
- Assay type: biochemical
- Condition Details: Table 3; read-out: Zap-1

Enquiry: Lab request: please report IC50 under test system Zap-70 (Homo sapiens, UniProt P43403) for COc1cccc(-c2ncnc(Nc3cc(OC)c(OC)c(OC)c3)n2)c1 [Compound 232]
Return: > 12.2 µM

Now turn to the next compound.
Enquiry: Lab request: please report IC50 under test system Zap-70 (Homo sapiens, UniProt P43403) for COCCOc1cc(Nc2ncnc(Nc3ccc(C)c(O)c3)n2)ccc1OC [Compound 127]
Return: > 11.3 µM

###

- Target Under Test: Kdr (Homo sapiens)
- Construct: Kinases are expressed as either kinase domains or full length constructs; made in house
- Test Details: Kinase inhibition assay (33P transfer), Kdr
- Type: biochemical
- Condition Details: Table 3; read-out: KDR-1
Measured IC50 values are reported for all entries that follow.

Enquiry: Lab request: please report IC50 under test system Kdr (Homo sapiens) for COc1ccc(Nc2ccc(Nc3ncnc(Nc4cc(OC)c(OC)c(OC)c4)n3)cc2)cc1
Return: < 0.843 µM

---
Enquiry: Lab request: please report IC50 under test system Kdr (Homo sapiens) for COc1cc(Nc2ncnc(-n3ccc4cccnc43)n2)cc(OC)c1OC
Return: > 11.9 µM

Enquiry: Lab request: please report IC50 under test system Kdr (Homo sapiens) for Clc1cccc(Nc2ncnc(-c3cccs3)n2)c1
Return: > 15.6 µM

Enquiry: Lab request: please report IC50 under test system Kdr (Homo sapiens) for COc1cc(Nc2ncnc(Nc3cccc(OC(F)(F)F)c3)n2)cc(OC)c1OC
Return: 5.49 to 8 µM

Enquiry: Lab request: please report IC50 under test system Kdr (Homo sapiens) for CC(=O)NS(=O)(=O)c1ccc(Nc2ncnc(-n3c(N)nc4ccccc43)n2)cc1
Return: 0.942 to 5.65 µM

Enquiry: Lab request: please report IC50 under test system Kdr (Homo sapiens) for COc1ccc(Nc2ncnc(N(CC(=O)OC(C)(C)C)c3ccc(Cl)cc3)n2)cc1OC
Return: > 9.54 µM

Enquiry: Lab request: please report IC50 under test system Kdr (Homo sapiens) for COc1cc(Nc2ncnc(N3CCc4cc([N+](=O)[O-])ccc43)n2)cc(OC)c1OC
Return: 0.942 to 5.65 µM

Enquiry: Lab request: please report IC50 under test system Kdr (Homo sapiens) for COc1ccccc1Nc1ncnc(-n2cccc2)n1
Return: > 16.8 µM

Enquiry: Lab request: please report IC50 under test system Kdr (Homo sapiens) for COc1cc(Nc2ncnc(Nc3ccc(N(C)C)cc3)n2)cc(OC)c1OC
Return: < 1.01 µM

Enquiry: Lab request: please report IC50 under test system Kdr (Homo sapiens) for COc1cc(Nc2ncnc(-n3c(NC(C)C)nc4ccccc43)n2)cc(OC)c1OC
Return: < 0.919 µM

###

Measured pIC50 values are reported for all entries that follow.
- Target Under Test: AKT (Homo sapiens)
- Construct: Kinases are expressed as either kinase domains or full length constructs; made in house
- Sequence (Q9Y243 whole entry, the tested form may be a part): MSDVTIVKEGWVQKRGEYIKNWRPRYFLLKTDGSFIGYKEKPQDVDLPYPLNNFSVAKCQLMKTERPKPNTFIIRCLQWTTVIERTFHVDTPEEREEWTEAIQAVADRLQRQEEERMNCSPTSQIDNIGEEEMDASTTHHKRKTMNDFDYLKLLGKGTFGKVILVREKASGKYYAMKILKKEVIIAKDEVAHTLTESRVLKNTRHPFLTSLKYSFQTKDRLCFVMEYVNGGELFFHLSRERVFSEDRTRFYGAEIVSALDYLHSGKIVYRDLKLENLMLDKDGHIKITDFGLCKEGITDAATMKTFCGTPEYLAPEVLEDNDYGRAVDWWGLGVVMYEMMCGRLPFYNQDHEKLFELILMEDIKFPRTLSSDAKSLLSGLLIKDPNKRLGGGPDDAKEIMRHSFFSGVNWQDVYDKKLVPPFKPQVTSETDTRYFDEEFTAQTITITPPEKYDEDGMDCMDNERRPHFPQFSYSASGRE
- Test Details: Kinase inhibition assay (33P transfer), AKT
- Format: biochemical
- Condition Details: Table 2, class symbols A-E; read-out: AKT3-1
pIC50: −log10 of the molar value.

Enquiry: // lookup pIC50 for COc1cc(Nc2ncnc(-c3cccnc3Nc3cccc(C#N)c3)n2)cc(OC)c1OC
Return: < 5.01

Enquiry: // lookup pIC50 for c1ccc(-c2cc(Nc3ncnc(Nc4ccc5[nH]ncc5c4)n3)[nH]n2)cc1
Return: 5.19 to 5.97

---
Enquiry: // lookup pIC50 for COc1cc(C)c(Nc2ncnc(Nc3cc(-c4ccc(C)cc4)n[nH]3)n2)cc1OC
Return: < 4.97

Enquiry: // lookup pIC50 for CN(c1ccc(Cl)c(Cl)c1)c1ncnc(Nc2ccc3c(cnn3Cc3ccccc3)c2)n1
Return: < 5.02
